target: Dual specificity mitogen-activated protein kinase kinase 1 (Homo sapiens); assay: Inhibition of MEK1 in human HT-29 cells assessed as inhibition of ERK phosphorylation by Western blot analysis; type: cell-based
Sequence (Q02750 whole entry): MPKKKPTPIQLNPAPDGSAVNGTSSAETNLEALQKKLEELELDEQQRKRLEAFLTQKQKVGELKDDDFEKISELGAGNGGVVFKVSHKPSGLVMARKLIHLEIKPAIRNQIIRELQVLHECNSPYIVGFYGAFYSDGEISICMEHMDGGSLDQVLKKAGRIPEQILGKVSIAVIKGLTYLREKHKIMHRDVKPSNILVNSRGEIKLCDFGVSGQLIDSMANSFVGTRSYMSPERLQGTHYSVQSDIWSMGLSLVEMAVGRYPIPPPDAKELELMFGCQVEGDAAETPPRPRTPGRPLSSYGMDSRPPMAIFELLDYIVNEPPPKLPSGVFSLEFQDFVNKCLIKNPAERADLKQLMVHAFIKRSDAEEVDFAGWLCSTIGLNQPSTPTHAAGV
test.readout: IC50 (nM)

[
  {
    "input.smiles": "C[C@@H](c1ccccc1)[C@@H](C(=O)Nc1ccc(I)cc1F)N1C(=O)N[C@H](c2ccc(OC[C@H](O)CO)cc2)C1=O",
    "target": "Dual specificity mitogen-activated protein kinase kinase 1 (Homo sapiens)",
    "test.readout": "IC50",
    "scale.unit": "nM",
    "assay.result": 12
  }
]
